System: antibodies in sera from SARS patients (sera 1a, 1b, 2, 6, 37, 62, London, SARS-yellow, SARS-green)
Assay type: binding, human
Respond with Criterion met for Binding of serum 2 to linear peptides of protein M of SARS-CoV Urbani values of 0.6 and above, Criterion not met for values below.

>>> label_class("WIMLLQFAYSNRNRF")
"Criterion not met"
>>> label_class("IVGLMWLSYFVASFR")
"Criterion not met"
>>> label_class("YIIKLVFLWLLWPVT")
"Criterion met"
>>> label_class("PLRGTIVTRPLMESE")
"Criterion not met"

Would you say CIVGLMWLSYFVASF shows Binding of serum 2 to linear peptides of protein M of SARS-CoV Urbani at minimum 0.6?
Criterion not met

Decide: Binding of serum 2 to linear peptides of protein M of SARS-CoV Urbani of MWSFNPETNILLNVP >= 0.6?
Criterion met

// provenance: patent US20070128217A1
